- METHOD NOTES: NCI Yeast Anticancer Drug Screen. Data for the rad18 strain (AID 177)
- ASSAY CONDITIONS: S. cerevisiae rad18 mutant growth inhibition; at 1.2 µM
This is part of a sample that, as a whole, favours compounds with a hit. Of some 79,000 tested, about 15% had one in any assay. Calls of active or inactive are those of the source. Cut-off read from the data, not from the text of the source: active = growth inhibition above about 70%; inactive = the rest.
Write down one outcome, taken from t = active, f = inactive

// known answers, use as guide
MOLECULE	ASSIGNED CATEGORY
Oc1ccc(NCn2c(=S)sc3ccccc32)cc1	f
Cc1cc(S(=O)(=O)/N=C(/NN)NNc2cccc(C(F)(F)F)n2)c(S)cc1Cl	f
CN(C)CCn1c2c3ccccc3ccc2c2oc(=O)c3ccccc3c21	f
CC(C)c1ccccc1NC(=O)/C(Cl)=C(\Cl)C(=O)O	f
CC(=O)Nc1ccc(/C=C(\C#N)c2ccc(C)cc2)cc1	f

Shifting focus to the molecule that follows.
-- ask Query: recorded result category for COc1cc2ccc(/C=C\[N+](=O)[O-])cc2cc1OC in this test
-- reply f

Where these numbers come from: PubChem BioAssay (NCI)
